test system: Fibroblast; assay: Multiplex assay against human fibroblast; format: toxicity, cell-based; conditions: 48 h, 10 µM, compound concentration 10 uM, replicate 2
quantity-kind: Population Tubulin-Different-Phenotype (%)
Please state the figure in %; there is no need to write the unit.

Record excerpt, results attached:
molecule: CN(C)C(=O)C(CCN1CCC(O)(c2ccc(Cl)cc2)CC1)(c1ccccc1)c1ccccc1.Cl [LOPERAMIDE HYDROCHLORIDE]
value-measured: 88
//
molecule: CCCS(=O)(=O)c1nc(NC2CC2)cc(-c2ccc3c(ccn3C3CC(C)(C)NC(C)(C)C3)c2)n1
value-measured: 42
//
molecule: CCOC(=O)c1c(C)[nH]c2ccc3c(c12)CN1CCc2cc(OC)ccc2C1O3 (stereo unspecified)
value-measured: 89
//
molecule: O=C(Nc1ccc(-c2ccnc(Nc3ccc(N4CCOCC4)cc3)n2)cc1)[C@@H]1CCCN1
value-measured: 53
//
molecule: O=C(Cc1ccc(-c2ccc(OCCN3CCOCC3)cc2)cn1)NCc1ccccc1 [TIRBANIBULIN]
value-measured: 22

Continue with the next molecule.
Q) Any idea what its Population Tubulin-Different-Phenotype (%) is? The molecule is CN1C2CCC1CC(OC(c1ccc(F)cc1)c1ccc(F)cc1)C2.Cl (stereo unspecified)
A) 79

Where do the numbers come from? From ChEMBL document CHEMBL4689842.
